test: Quantitative High-Throughput drug screen in 47 multiple myeloma cell lines against the NCATS MIPE library collection: OPM2_DSMZ cell viability assay (AID 1919872); conditions: OPM2 myeloma viability, CellTiter-Glo ATP luminescence, 48 h; series mostly up to 45.8 µM; also: nearly all actives have a fitted effect of over 30% in size
Records with an inconclusive call do not appear. Calls of active or inactive are those of the source. Calls follow the shape of the dose curve; as a rule, active = well fitted cell-killing curve with a large enough effect; inconclusive = small, poorly fitted or top-dose-only effect, or effect the other way; inactive = no such curve, though single readings can be large or run the other way.
propertyMeasured: outcome

CN1CCN(CCOc2cc(OC3CCOCC3)c3c(Nc4c(Cl)ccc5c4OCO5)ncnc3c2)CC1 | inactive
COc1ccc2c3c1OC1C[C@@H](O)C=C[C@@]31CCN(C)C2 (some centres undefined) | inactive
COCCOc1nc(-c2ccc(Cl)c(Cl)c2)n(-c2ccc(NC(=O)CCl)cc2)n1 | inactive
O=C(O)c1cc(O)c2c(c1)C(=O)c1cccc(O)c1C2=O | inactive
CC(=Cc1ccccc1)C=C1SC(=S)N(CC(=O)O)C1=O | inactive

Query :: Entry NC1CCC(Nc2nc(Nc3ccc(C(=O)N4CCCCC4)cc3)c3ncn(-c4cccc(F)c4)c3n2)CC1 (centres undefined) has what outcome?
Result :: inactive

Query :: Try the compound `CCc1ccc(C=C2SC(=S)NC2=O)cc1`
Result :: inactive

Query :: Try the compound `NS(=O)(=O)c1ccc(NC2=CC(=O)c3ccccc3C2=O)cc1`
Result :: inactive

Query :: Try the compound C=C1C(=O)OC(CCCCCCCC)C1C(=O)O (centres undefined)
Result :: inactive

Query :: Try the compound `CCn1cc(C(=O)O)c(=O)c2ccc(C)nc21`
Result :: inactive

Query :: Try the compound `N#C[C@H]1C[C@H]2C[C@@H]2N1C(=O)[C@@H](N)C12CC3CC(CC(O)(C3)C1)C2`
Result :: inactive

Query :: Try the compound Cc1ccc(C(C)(O)c2nc3ccccc3s2)c(C)c1 (centres undefined)
Result :: inactive

Query :: Try the compound `COc1ccc(-c2cc(=O)c3c(O)cc(O)cc3o2)cc1O`
Result :: inactive

Query :: Try the compound `O=C1NC(=O)C(=Cc2ccc3nccnc3c2)S1`
Result :: inactive

###

experiment: Quantitative High-Throughput drug screen in 47 multiple myeloma cell lines against the NCATS MIPE library collection: MOLP8_DSMZ cell viability assay (AID 1918977); settings: MOLP8 myeloma viability, CellTiter-Glo ATP luminescence, 48 h; series mostly up to 45.8 µM; also: nearly all actives have a fitted effect of over 45% in size
Inconclusive results are not listed. Active and inactive are the calls of the source. The call rests on the fitted dose curve; in most records, active means well fitted cell-killing curve with a large enough effect; inconclusive means small, poorly fitted or top-dose-only effect, or effect the other way; inactive means no such curve, though single readings can be large or run the other way.
Return exactly one item of true (1) = active, false (0) = inactive

Examples with answers:
CC=CCC=CCCC(=O)[C@H]1O[C@@H]1C(N)=O | true (1)
NC1CCC(Nc2nc(Nc3ccc(C(=O)N4CCCCC4)cc3)c3ncn(-c4cccc(F)c4)c3n2)CC1 (centres undefined) | false (0)
COc1ccc(-c2nc(N3CCOCC3)c3sc(CN(C)c4ncc(C(=O)NO)cn4)cc3n2)cn1 | false (0)
CC(C)C(C)C=CC(C)C1CCC2C3=CC=C4CC(O)CCC4(C)C3CCC21C (centres undefined) | false (0)

Query :: Call for entry `CCN(CC)CCOc1ccc(C(=C(Cl)c2ccccc2)c2ccccc2)cc1` :
Result :: false (0)

Query :: Try the compound O=C(NOCC(O)CO)c1cc(Br)c(F)c(F)c1Nc1ccc(I)cc1F (centres undefined)
Result :: false (0)

Query :: Try the compound `Cc1ccc([C@@H]2O[C@H](CO)[C@@H](O)[C@H](O)[C@@H]2O)cc1Cc1ccc(-c2ccc(F)cc2)s1`
Result :: false (0)

Query :: Try the compound `COc1cc2nc(-c3ccc(N4CCN(C)CC4)cc3)nc(NCCN3CCOCC3)c2cc1OC`
Result :: true (1)

Query :: Try the compound C=C1C(=O)OC2C=C(C)CCC=C(C)CCC12 (centres undefined)
Result :: true (1)

Query :: Try the compound Clc1ccc(COC(Cn2ccnc2)c2ccc(Cl)cc2Cl)cc1 (centres undefined)
Result :: false (0)

Query :: Try the compound `COc1cc2ncnc(Nc3ccc(F)c(Cl)c3)c2cc1OCCCN1CCOCC1`
Result :: true (1)

Query :: Try the compound C=C1C(=O)[C@@]23C(CC[C@@H]1[C@H]2O)[C@@]12CO[C@]3(O)[C@@H](O)[C@@H]1C(C)(C)CC[C@@H]2O (some centres undefined)
Result :: true (1)

Query :: Try the compound `O=C(O)C=Cc1ccc(O)c(O)c1`
Result :: true (1)

Query :: Try the compound `COc1ccc(-c2coc3cc(O)cc(O)c3c2=O)cc1`
Result :: false (0)

Query :: Try the compound `CN(C)c1cc(NC(=O)CNC(C)(C)C)c(O)c2c1C[C@@H]1C[C@H]3[C@H](N(C)C)C(=O)C(C(N)=O)=C(O)[C@@]3(O)C(=O)C1=C2O`
Result :: true (1)

Query :: Try the compound `CC(=O)Nc1ccc([C@H](C)C(=O)Nc2ncc(C(C)C)s2)cc1`
Result :: true (1)

###

experiment: qHTS profiling of the MIPE4 collection as inhibitors of Plasmodium falciparum (HB3) proliferation (AID 743347);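 also: plate controls were DMSO vehicle wells for no effect and artemisinin wells for full effect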; conditions: P. falciparum HB3 in erythrocytes, SYBR Green DNA, 72 h; at 28.5 µM (top of the series) unless noted
Readings of growth, % of control for the listed compounds
Quick reminder: number only, in %, skip the unit.

Some solved entries appear below for comparison.
O=C(Nc1c(Cl)cncc1Cl)c1ccc(OC(F)F)c(OCC2CC2)c1 | 100
COCCOc1nc(-c2ccc(Cl)c(Cl)c2)n(-c2ccc(NC(=O)CCl)cc2)n1 | 30.2
Nc1ncnc2c1ncn2[C@@H]1O[C@H](CO)C[C@@H]1O | 79

Query :: Entry `NC(CO)(CO)CCc1ccc(Sc2cccc(OCc3ccccc3)c2)cc1Cl` has what growth, % of control?
Result :: 6.89

Query :: Try the compound `O=C(OCC#CCSc1nnc(-c2cccc3ccccc23)o1)c1cc2ccccc2s1`
Result :: 44.7

Query :: Try the compound `NC[C@@H]1O[C@@H](O[C@H]2[C@@H](O)[C@H](O[C@@H]3[C@@H](O)[C@@H](N)C[C@H](N)[C@H]3O[C@H]3O[C@H](CN)[C@@H](O)[C@@H](O)[C@H]3N)O[C@H]2CO)[C@H](N)[C@@H](O)[C@@H]1O`
Result :: 99.6

###

assay: Quantitative High-Throughput drug screen in 47 multiple myeloma cell lines against the NCATS MIPE library collection: MMM1_PLB cell viability assay (AID 1918976); conditions: MMM1 myeloma cells viability, CellTiter-Glo, 48 h; series mostly up to 45.8 µM; also: potency is read from the fitted curve at half-maximal effect; nearly all actives have a fitted effect of over 35% in size
Inconclusive results are not listed. Active and inactive are the calls of the source. Calls follow the shape of the dose curve; as a rule, active = well fitted cell-killing curve with a large enough effect; inconclusive = small, poorly fitted or top-dose-only effect, or effect the other way; inactive = no such curve, though single readings can be large or run the other way.
Readings of Potency for the listed molecules

Some solved entries appear below for comparison.
CO[C@H]1C=CC=C(C)C(=O)NC2=CC(=O)C(NCCN(C)C)=C(C[C@@H](C)C[C@H](OC)[C@@H](O)[C@@H](C)C=C(C)[C@@H]1OC(N)=O)C2=O | 1.66 µM (active)
O=C(CCN1CCN(C(=O)OCc2cc(Cl)cc(Cl)c2)CC1)c1ccc2[nH]c(=O)oc2c1 | 10.5 µM (active)
CCC(=O)NC[C@H](Cc1ccc(OCCc2nc(-c3ccccc3)oc2C)cc1)NC(C)=CC(=O)c1ccc(C(F)(F)F)cc1 | 20.9 µM (active)
C[C@]12CC[C@@H]3c4ccc(O)cc4CC[C@H]3[C@H]1C[C@@H](O)[C@H]2O | 13.2 µM (active)

Query :: Entry `CC(C)=CC[C@@H](O)C1=CC(=O)c2c(O)ccc(O)c2C1=O` has what Potency?
Result :: 1.05 µM (active)

Query :: Try the molecule `O=c1cc(-c2ccccc2)oc2cc(O)c(O)c(O)c12`
Result :: 23.5 µM (active)

Query :: Try the molecule CNC1CCC(N(Cc2cccc(-c3ccncc3)c2)C(=O)c2sc3c(F)ccc(F)c3c2Cl)CC1 (configuration not stated)
Result :: 26.4 µM (active)

Query :: Try the molecule `O=C1NC(=O)C(=Cc2cccc(C(F)(F)F)c2)S1`
Result :: 23.5 µM (active)

Query :: Try the molecule `CC=CC(=O)N(CC)c1ccccc1C`
Result :: 3.72 µM (active)

Query :: Try the molecule `O=C(O)c1ccc(-c2cc3cccnc3c(-c3ccc4nonc4c3)n2)cc1`
Result :: 26.4 µM (active)

Query :: Try the molecule `O=C(O)C=Cc1ccc(O)c(O)c1`
Result :: 7.43 µM (active)

###

Readings of Potency for the listed molecules
Assay: Quantitative High-Throughput drug screen in 47 multiple myeloma cell lines against the NCATS MIPE library collection: UTMC2_PLB cell viability assay (AID 1919868); also: potency is read from the fitted curve at half-maximal effect; nearly all actives have a fitted effect of over 55% in size
Conditions: CellTiter-Glo ATP luminescence, 48 h
Excerpt: PI: Beverly A. Mock Ph.D. Laboratory of Cancer Biology and Genetics, Center for Cancer Research, National Cancer Institute, National Institute of Health, Bethesda, Maryland […] 5; Detector; 425V; Luminescence; Viewlux PerkinElmer. […] 1. […] Briefly, the corresponding myeloma cell lines were screened in 1,536-well plates with 500 cells, 5-uL per well for inhibition of cell viability (assessed by measuring ATP levels with CellTiterGlo). […]
Inconclusive results are not listed. Calls of active or inactive are those of the source. The call rests on the fitted dose curve; in most records, active means well fitted cell-killing curve with a large enough effect; inconclusive means small, poorly fitted or top-dose-only effect, or effect the other way; inactive means no such curve, though single readings can be large or run the other way.

Some solved entries appear below for comparison.
Cc1nc(N)sc1-c1ccnc(Nc2ccc(N3CCOCC3)cc2)n1 | 0.59 µM (active)
O=c1cc(N2CCOCC2)oc2c(-c3cccc4c3sc3ccccc34)cccc12 | 5.9 µM (active)
Cc1ccc(F)c(NC(=O)Nc2ccc(-c3cccc4[nH]nc(N)c34)cc2)c1 | 8.33 µM (active)
CO[C@H]1C=CC=C(C)C(=O)NC2=CC(=O)C(NCCN(C)C)=C(C[C@@H](C)C[C@H](OC)[C@@H](O)[C@@H](C)C=C(C)[C@@H]1OC(N)=O)C2=O | 0.0662 µM (active)

Let us examine a further case.
Query :: Entry `O=c1cc(CN2CCOCC2)occ1OCCCCCSc1ccnc2cc(C(F)(F)F)ccc12` has what Potency?
Result :: 9.35 µM (active)
